RESULT_TYPE: melting point

• COc1cc(C(=O)c2ncc3ccccn23)ccc1[N+](=O)[O-] = 183 °C
• CCCCCCc1ccc(OCCCCCC(=O)Nc2ccc(O)cc2)cc1O = 128 °C
• COc1c(C2CCN(CCCCNC(=O)c3ccc(-c4ccc(NS(C)(=O)=O)cc4)cc3)CC2)ccc2c1CCCC2 = 200 to 202 °C
• COC(=O)CCc1cc2cc(Cl)ccc2n1S(=O)(=O)c1cc(C)cc(C)c1 = 146 to 150 °C
• Cc1nc(-c2ccc(OC(C)C)c(C#N)c2)sc1C(=O)O = 220 to 222 °C
• CC(=O)n1c(C)cc(=O)n(-c2cc(C(=O)OC(C)C)c(Cl)cc2F)c1=O = 168 to 170 °C
• CCC(Oc1ccc(-n2nnc3cc(C(F)(F)F)ccc32)cc1)C(=O)O (configuration not stated) = 122 to 125 °C
• CN1C(=O)CN(N)C(c2ccccc2)c2cc(Cl)ccc21 (configuration not stated) = 147 to 148 °C

For Cc1nnc(C=Cc2ccccc2OCC(O)CNC(C)(C)C)s1 (configuration not stated) the compound record lists melting point as 110 to 112 °C

For `Cc1nn(-c2ccccc2)c(-c2ccccc2)c1NC(N)=S` the compound record lists melting point as 212 to 214 °C

For CC#CC(C)(C)N(C)C(=O)C(CC)Oc1cncc(Cl)c1 (configuration not stated) the compound record lists melting point as 67 to 68 °C

For `N#Cc1c(NC(=O)c2ccccc2)ccc2ccccc12` the compound record lists melting point as 205 °C

// provenance: a melting point compilation (Tetko et al.; mined from patent text by program, amines drawn as free bases though some values may be those of a salt)
